# Target under test: FLT4/VEGFR3 (Homo sapiens)
# Sequence (P35916 25-1363): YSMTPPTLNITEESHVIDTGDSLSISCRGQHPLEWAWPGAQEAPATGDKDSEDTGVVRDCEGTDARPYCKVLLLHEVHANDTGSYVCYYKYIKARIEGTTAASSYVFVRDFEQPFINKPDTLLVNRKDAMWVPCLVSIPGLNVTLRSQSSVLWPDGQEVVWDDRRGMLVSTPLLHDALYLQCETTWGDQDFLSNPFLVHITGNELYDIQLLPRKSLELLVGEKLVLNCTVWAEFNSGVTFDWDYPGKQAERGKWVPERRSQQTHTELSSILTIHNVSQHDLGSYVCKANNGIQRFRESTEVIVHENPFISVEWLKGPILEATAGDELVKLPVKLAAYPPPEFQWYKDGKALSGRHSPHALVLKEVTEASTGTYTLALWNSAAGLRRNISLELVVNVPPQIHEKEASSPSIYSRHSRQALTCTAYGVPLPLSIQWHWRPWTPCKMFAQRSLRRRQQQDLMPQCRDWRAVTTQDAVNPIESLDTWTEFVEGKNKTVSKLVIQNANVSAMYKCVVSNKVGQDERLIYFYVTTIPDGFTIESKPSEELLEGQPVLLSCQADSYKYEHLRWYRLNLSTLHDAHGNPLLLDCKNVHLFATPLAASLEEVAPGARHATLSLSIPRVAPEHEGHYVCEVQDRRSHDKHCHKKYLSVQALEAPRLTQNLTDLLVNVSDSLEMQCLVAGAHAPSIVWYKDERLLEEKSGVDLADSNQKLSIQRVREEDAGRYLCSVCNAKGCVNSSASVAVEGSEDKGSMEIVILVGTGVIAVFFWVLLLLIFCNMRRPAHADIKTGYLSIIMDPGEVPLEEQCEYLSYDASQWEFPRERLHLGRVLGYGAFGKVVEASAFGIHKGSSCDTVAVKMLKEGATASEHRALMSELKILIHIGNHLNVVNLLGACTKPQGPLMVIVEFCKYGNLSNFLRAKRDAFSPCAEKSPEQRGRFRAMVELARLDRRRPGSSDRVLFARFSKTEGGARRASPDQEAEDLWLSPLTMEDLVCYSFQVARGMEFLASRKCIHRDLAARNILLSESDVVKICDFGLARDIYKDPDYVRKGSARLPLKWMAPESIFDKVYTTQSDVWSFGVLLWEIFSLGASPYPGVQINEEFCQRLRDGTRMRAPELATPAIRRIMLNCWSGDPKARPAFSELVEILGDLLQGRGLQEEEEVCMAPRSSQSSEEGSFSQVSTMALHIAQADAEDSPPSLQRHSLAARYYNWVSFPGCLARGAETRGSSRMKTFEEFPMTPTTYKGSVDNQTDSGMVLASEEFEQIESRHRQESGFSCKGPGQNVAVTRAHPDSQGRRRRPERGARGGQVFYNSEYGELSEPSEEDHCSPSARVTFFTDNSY
# Method description: Cell free kinase inhibition assay
Measurement kind: pIC50
pIC50 field: float, defined as -log10 of concentration (mol/L).

Problem: # pIC50 lookup, item COc1cc2nccc(Oc3ccc(NC(=O)NC4CC4)c(Cl)c3)c2cc1C(N)=O [Lenvatinib, Lenvatinib mesilate]
Result: 8.64

###

# Target under test: HGK (Homo sapiens, UniProt O95819)
Measurement kind: IC50

Problem: # IC50 lookup, item COc1cc2nccc(Oc3ccc(NC(=O)NC4CC4)c(Cl)c3)c2cc1C(N)=O [Lenvatinib, Lenvatinib mesilate]
Result: 400 nM

###

# Target under test: FGFR3(K650E) (Homo sapiens, UniProt P22607, K650E)
# Sequence (P22607 23-806 K650E): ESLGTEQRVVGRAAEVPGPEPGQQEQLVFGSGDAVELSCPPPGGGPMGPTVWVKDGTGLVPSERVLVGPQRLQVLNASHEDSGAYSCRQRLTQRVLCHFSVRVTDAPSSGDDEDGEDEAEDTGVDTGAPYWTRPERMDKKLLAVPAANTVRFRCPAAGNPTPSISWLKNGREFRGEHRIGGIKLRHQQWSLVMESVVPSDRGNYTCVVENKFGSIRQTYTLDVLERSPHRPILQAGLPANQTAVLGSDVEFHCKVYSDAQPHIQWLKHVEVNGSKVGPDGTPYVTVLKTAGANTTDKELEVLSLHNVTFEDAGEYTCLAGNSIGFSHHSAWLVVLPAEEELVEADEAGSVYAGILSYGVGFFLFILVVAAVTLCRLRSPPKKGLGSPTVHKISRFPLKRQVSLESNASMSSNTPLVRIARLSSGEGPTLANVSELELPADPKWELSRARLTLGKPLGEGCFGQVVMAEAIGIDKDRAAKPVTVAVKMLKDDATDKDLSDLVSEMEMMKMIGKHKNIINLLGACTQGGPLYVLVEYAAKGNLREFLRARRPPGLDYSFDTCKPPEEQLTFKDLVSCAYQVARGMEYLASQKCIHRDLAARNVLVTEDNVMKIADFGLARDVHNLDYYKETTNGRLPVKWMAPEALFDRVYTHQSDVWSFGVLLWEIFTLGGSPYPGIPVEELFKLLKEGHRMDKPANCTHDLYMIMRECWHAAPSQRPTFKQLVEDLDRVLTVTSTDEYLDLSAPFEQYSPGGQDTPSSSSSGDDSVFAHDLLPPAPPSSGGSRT
# Method description: Cell free kinase inhibition assay
Measurement kind: pIC50
pIC50 field: float, defined as -log10 of concentration (mol/L).

Problem: # pIC50 lookup, item COc1cc2nccc(Oc3ccc(NC(=O)NC4CC4)c(Cl)c3)c2cc1C(N)=O [Lenvatinib, Lenvatinib mesilate]
Result: 6.96

###

# Target under test: FLT1/VEGFR1 (Homo sapiens)
# Method description: Cell free kinase inhibition assay
Measurement kind: pIC50
pIC50 field: float, defined as -log10 of concentration (mol/L).

Problem: # pIC50 lookup, item COc1cc2nccc(Oc3ccc(NC(=O)NC4CC4)c(Cl)c3)c2cc1C(N)=O [Lenvatinib, Lenvatinib mesilate]
Result: 8.33

###

# Target under test: PDGFRα(T674I) (Homo sapiens, UniProt P16234, T674I)
# Construct: purchased Carna Biosciences, Inc. (Kobe, Japan)
# Sequence (P16234 24-1089 T674I): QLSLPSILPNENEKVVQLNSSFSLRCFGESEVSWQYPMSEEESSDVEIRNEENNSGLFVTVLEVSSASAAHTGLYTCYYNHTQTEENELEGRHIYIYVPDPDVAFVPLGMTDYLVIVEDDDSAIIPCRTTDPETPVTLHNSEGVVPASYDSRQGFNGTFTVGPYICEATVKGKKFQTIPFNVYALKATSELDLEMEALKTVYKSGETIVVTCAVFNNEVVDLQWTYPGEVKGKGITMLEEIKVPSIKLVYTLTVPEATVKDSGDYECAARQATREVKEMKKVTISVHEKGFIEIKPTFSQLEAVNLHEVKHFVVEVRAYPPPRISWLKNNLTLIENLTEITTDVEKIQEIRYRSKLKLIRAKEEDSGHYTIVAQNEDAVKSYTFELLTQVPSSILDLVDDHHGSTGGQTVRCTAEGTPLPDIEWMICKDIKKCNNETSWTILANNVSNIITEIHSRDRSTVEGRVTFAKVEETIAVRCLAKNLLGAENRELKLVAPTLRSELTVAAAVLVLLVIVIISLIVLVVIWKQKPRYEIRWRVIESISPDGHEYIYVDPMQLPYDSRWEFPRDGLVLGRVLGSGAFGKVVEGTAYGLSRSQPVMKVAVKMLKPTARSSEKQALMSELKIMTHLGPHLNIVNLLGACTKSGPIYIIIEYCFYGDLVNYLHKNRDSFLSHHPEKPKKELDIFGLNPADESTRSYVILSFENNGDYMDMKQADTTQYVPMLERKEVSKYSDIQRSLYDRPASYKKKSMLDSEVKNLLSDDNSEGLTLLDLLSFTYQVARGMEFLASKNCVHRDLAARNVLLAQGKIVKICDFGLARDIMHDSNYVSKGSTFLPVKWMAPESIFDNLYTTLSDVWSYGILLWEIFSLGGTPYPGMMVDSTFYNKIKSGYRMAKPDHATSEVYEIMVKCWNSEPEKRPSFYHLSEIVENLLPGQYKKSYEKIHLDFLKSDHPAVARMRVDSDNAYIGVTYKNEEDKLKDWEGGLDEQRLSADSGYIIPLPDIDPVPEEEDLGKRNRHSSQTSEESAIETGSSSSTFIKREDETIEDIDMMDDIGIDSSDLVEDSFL
# Method description: Cell free kinase inhibition assay
# Format: biochemical
Measurement kind: IC50 (nM)
Write down the numeric answer in nM and omit the unit.

Problem: # IC50 lookup, item COc1cc2nccc(Oc3ccc(NC(=O)NC4CC4)c(Cl)c3)c2cc1C(N)=O [Lenvatinib, Lenvatinib mesilate]
Result: 630

###

# Target under test: CHK1 (Homo sapiens, UniProt O14757)
# Sequence (O14757 whole entry): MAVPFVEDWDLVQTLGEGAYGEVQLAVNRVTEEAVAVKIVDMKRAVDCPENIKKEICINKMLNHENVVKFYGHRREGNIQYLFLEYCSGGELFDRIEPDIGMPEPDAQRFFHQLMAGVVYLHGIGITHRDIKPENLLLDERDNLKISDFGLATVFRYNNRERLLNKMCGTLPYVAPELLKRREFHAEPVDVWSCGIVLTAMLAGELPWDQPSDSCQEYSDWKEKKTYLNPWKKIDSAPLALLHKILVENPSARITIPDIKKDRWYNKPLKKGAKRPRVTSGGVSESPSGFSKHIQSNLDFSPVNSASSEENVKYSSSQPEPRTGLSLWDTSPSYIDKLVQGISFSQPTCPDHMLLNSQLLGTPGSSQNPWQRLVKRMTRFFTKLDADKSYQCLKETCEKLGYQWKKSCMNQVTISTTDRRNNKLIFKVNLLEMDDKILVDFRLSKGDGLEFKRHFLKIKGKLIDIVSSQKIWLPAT
pIC50: −log10 of the molar value.
Measurement kind: pIC50

Problem: Value wanted: pIC50 (CHK1 (Homo sapiens, UniProt O14757)) of entry COc1cc2nccc(Oc3ccc(NC(=O)NC4CC4)c(Cl)c3)c2cc1C(N)=O [Lenvatinib, Lenvatinib mesilate]
Result: < 5.00

###

# Target under test: FAK (Homo sapiens, UniProt Q05397)
# Sequence (Q05397 whole entry): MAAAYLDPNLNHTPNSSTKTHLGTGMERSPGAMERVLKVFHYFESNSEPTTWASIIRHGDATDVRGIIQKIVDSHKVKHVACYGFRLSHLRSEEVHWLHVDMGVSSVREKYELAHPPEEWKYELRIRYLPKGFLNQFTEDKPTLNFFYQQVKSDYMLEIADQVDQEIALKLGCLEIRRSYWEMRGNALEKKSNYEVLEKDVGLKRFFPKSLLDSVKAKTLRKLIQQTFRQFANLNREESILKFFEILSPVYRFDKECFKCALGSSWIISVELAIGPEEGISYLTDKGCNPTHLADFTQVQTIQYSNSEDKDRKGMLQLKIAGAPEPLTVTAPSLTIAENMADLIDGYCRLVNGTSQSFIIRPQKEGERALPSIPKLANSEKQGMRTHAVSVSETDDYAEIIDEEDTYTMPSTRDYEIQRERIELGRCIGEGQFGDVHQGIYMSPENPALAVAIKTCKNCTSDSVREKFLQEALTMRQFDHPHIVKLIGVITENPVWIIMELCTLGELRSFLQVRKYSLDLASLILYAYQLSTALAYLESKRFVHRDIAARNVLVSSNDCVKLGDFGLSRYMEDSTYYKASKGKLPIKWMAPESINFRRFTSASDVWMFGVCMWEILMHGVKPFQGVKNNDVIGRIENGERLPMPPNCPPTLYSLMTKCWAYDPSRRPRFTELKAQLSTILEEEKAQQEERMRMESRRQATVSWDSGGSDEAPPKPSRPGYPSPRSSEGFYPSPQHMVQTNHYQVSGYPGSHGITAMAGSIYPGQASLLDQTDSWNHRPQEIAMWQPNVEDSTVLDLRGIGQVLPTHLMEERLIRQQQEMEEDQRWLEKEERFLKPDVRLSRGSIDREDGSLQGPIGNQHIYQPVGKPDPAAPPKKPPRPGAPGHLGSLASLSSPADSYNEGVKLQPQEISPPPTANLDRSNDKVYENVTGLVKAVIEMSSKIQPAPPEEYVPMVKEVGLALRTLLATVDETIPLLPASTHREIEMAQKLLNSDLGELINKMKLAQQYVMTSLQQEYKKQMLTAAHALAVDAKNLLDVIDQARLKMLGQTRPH
pIC50: −log10 of the molar value.
Measurement kind: pIC50

Problem: Value wanted: pIC50 (FAK (Homo sapiens, UniProt Q05397)) of entry COc1cc2nccc(Oc3ccc(NC(=O)NC4CC4)c(Cl)c3)c2cc1C(N)=O [Lenvatinib, Lenvatinib mesilate]
Result: < 5.00

###

# Target under test: UniProt:P43405
Measurement kind: IC50
Please don't drop the unit; write it after the number.

Problem: # IC50 lookup, item COc1cc2nccc(Oc3ccc(NC(=O)NC4CC4)c(Cl)c3)c2cc1C(N)=O [Lenvatinib, Lenvatinib mesilate]
Result: 8.7 µM

###

# Test system: VEGFR, FGFR, KIT, PDGFR
# Method description: Cell free kinase inhibition assay, summary for RTKs
# Assay type: biochemical
# Protocol conditions: PDGFR (Supplementary Table S1)
Measurement kind: IC50

Problem: # IC50 lookup, item COc1cc2nccc(Oc3ccc(NC(=O)NC4CC4)c(Cl)c3)c2cc1C(N)=O [Lenvatinib, Lenvatinib mesilate]
Result: < 100 nM

###

Target protein (sequence): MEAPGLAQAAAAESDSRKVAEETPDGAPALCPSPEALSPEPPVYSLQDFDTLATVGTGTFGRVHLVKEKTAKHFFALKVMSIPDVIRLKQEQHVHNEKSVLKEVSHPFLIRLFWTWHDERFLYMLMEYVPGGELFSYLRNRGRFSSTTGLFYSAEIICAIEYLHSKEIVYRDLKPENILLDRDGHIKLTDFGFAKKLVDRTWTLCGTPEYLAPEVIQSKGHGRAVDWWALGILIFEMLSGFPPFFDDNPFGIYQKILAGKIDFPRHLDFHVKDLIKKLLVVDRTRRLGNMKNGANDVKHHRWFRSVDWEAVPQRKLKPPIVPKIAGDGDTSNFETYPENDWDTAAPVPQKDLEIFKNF
pIC50: −log10 of the molar value.
Measurement kind: pIC50

Problem: # pIC50 lookup, item COc1cc2nccc(Oc3ccc(NC(=O)NC4CC4)c(Cl)c3)c2cc1C(N)=O [Lenvatinib, Lenvatinib mesilate]
Result: < 5.00

###

# Target under test: EPHB2 (Homo sapiens)
# Sequence (P29323 19-1055): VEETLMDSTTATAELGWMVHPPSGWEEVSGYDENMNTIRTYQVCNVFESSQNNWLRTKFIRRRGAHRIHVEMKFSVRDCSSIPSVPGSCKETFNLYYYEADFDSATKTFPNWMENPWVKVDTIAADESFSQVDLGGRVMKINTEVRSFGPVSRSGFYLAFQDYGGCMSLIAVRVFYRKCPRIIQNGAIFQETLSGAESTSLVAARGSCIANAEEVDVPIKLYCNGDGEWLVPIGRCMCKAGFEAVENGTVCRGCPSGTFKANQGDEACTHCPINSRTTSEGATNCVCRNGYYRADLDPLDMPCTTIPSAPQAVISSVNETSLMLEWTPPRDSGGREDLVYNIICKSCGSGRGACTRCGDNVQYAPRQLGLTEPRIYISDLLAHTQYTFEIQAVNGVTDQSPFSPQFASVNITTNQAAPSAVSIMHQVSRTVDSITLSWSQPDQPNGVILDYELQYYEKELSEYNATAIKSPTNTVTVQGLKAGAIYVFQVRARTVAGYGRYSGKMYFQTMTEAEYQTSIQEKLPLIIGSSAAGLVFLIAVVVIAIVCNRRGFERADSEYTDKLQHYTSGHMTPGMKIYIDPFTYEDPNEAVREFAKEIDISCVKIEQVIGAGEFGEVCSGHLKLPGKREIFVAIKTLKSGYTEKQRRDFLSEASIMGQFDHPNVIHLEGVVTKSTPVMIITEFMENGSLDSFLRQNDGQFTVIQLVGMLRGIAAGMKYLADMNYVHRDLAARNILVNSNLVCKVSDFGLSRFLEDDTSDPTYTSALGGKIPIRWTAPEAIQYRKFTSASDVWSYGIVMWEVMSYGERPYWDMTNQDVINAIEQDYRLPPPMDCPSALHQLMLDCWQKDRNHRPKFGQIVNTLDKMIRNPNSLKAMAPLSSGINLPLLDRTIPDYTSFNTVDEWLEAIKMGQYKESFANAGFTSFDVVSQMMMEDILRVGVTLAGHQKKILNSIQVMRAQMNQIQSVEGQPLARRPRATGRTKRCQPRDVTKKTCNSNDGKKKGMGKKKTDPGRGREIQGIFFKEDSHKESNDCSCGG
Measurement kind: pIC50
pIC50 field: float, defined as -log10 of concentration (mol/L).

Problem: # pIC50 lookup, item COc1cc2nccc(Oc3ccc(NC(=O)NC4CC4)c(Cl)c3)c2cc1C(N)=O [Lenvatinib, Lenvatinib mesilate]
Result: 6.18

###

# Target under test: UniProtKB P51955
# Sequence (P51955 1-445): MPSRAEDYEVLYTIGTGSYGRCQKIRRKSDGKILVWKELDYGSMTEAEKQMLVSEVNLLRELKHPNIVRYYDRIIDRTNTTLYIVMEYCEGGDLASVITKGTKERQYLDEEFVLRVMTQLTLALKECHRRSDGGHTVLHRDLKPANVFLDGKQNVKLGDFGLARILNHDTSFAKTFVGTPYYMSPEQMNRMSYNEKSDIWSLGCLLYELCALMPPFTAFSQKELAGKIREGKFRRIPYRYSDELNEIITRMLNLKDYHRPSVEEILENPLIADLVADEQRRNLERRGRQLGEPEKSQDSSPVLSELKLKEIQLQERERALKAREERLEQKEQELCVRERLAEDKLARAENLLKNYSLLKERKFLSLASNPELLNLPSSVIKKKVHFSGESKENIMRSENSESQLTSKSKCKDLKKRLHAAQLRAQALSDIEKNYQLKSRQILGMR
Measurement kind: IC50

Problem: # IC50 lookup, item COc1cc2nccc(Oc3ccc(NC(=O)NC4CC4)c(Cl)c3)c2cc1C(N)=O [Lenvatinib, Lenvatinib mesilate]
Result: > 10 µM

###

# Target under test: PKACα (Homo sapiens, UniProt P17612)
Measurement kind: IC50

Problem: # IC50 lookup, item COc1cc2nccc(Oc3ccc(NC(=O)NC4CC4)c(Cl)c3)c2cc1C(N)=O [Lenvatinib, Lenvatinib mesilate]
Result: > 10 µM

###

# Target under test: FGFR1 (Homo sapiens)
Measurement kind: pIC50
pIC50 field: float, defined as -log10 of concentration (mol/L).

Problem: Value wanted: pIC50 (FGFR1 (Homo sapiens)) of entry COc1cc2nccc(Oc3ccc(NC(=O)NC4CC4)c(Cl)c3)c2cc1C(N)=O [Lenvatinib, Lenvatinib mesilate]
Result: 7.21

###

# Target under test: FGFR3(K650M) (Homo sapiens, UniProt P22607, K650M)
# Sequence (P22607 23-806 K650M): as the sequence (P22607 23-806 K650E) above, with E628M counted along it
# Method description: Cell free kinase inhibition assay
Measurement kind: pIC50
pIC50 field: float, defined as -log10 of concentration (mol/L).

Problem: # pIC50 lookup, item COc1cc2nccc(Oc3ccc(NC(=O)NC4CC4)c(Cl)c3)c2cc1C(N)=O [Lenvatinib, Lenvatinib mesilate]
Result: 6.60
